Test: IP (and IN) food intake, mice
Format: in vivo
Details: mouse, IP, 10 mg/kg, 4 hours
Label scheme for maximal decrease in food intake: lower than 30% is Not met, 30% and above is Met.

Enquiry: Would you say CC(=O)N[C@H](Cc1ccc(C)cc1C)C(=O)N1C[C@@H](C)N(CCc2ccc3ccccc3c2)C[C@@H]1CCCNC(=N)N [Example 25] shows maximal decrease in food intake at minimum 30%?
Return: Met

Enquiry: Would you say N=C(N)NCCC[C@H]1CN(CCc2ccc3ccccc3c2)CCN1C(=O)[C@H](N)Cc1ccc(Cl)cc1Cl [Example 17] shows maximal decrease in food intake at minimum 30%?
Return: Met

Enquiry: Would you say Cc1cc(Cl)ccc1C[C@@H](N)C(=O)N1C[C@@H](C)N(C(=O)Cc2ccc3ccccc3c2)C[C@@H]1CCCNC(=N)N [Example 10] shows maximal decrease in food intake at minimum 30%?
Return: Not met

Enquiry: Would you say CC(=O)N[C@H](Cc1ccc2ccccc2c1)C(=O)N1C[C@@H](CC(C)C)N(CCc2ccc3ccccc3c2)C[C@@H]1CCCNC(=N)N [Example 12] shows maximal decrease in food intake at minimum 30%?
Return: Met

====

Target: MC1-R (Mus musculus)
Construct: B-16 mouse melanoma cells (containing MC1-R); endogenous in cells
Sequence (Q01727 whole entry): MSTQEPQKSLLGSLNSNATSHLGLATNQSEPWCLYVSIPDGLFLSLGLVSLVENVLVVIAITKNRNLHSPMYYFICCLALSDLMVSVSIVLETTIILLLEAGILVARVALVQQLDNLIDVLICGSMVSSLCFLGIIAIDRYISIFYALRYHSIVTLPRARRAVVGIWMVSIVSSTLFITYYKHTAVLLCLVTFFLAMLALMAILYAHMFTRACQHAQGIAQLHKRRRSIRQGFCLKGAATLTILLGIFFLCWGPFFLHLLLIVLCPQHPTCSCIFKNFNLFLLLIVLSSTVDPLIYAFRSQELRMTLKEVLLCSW
Assay: Competitive inhibition assay using [I^125]-NDP-α-MSH, B-16 mouse melanoma cell membranes
Format: binding
Conditions: 1 μM test compound; read-out: Inhibition at 1 μM (NDP-α-MSH) In Normal System, MC1-R
Non-standard residues stand in square brackets, D forms with d. Residues, ends and D or L forms follow the SMILES beside them. *: point of attachment. dPhe(4-Cl) = N[C@H](Cc1ccc(Cl)cc1)C(=O)O; Ahp = NCCCCCCC(=O)O; Bn = c1ccc(C*)cc1
Kindly supply the reported inhibition at 1 µM values for the records listed here.
The figure you give is taken to be in %; do not add the unit.

Enquiry: Check the records and state inhibition at 1 µM for N=C(N)NCCC[C@H]1C(=O)N2C(CC[C@@H]2COc2ccc3ccccc3c2)N1C(=O)[C@@H](Cc1ccc(Cl)cc1Cl)NC(=O)[C@@H]1CC[C@H](c2ccccc2)N1 (some centres unmarked) [Example 19]
Return: 16

Enquiry: Check the records and state inhibition at 1 µM for C[C@H](NC(=O)[C@H](Cc1c[nH]c2ccccc12)NC(=O)[C@H](CCCNC(=N)N)NC(=O)[C@@H](Cc1ccc(Cl)cc1)NC(=O)[C@H](COCc1ccccc1)NC(=O)CCCCCCN)C(N)=O [Example 15] (H-[Ahp]S(Bn)[dPhe(4-Cl)]RWA-NH2)
Return: 60

Enquiry: Check the records and state inhibition at 1 µM for CC(=O)N[C@H](Cc1ccc2ccccc2c1)C(=O)N1C[C@@H](C)N(C(=O)Cc2ccc3ccccc3c2)C[C@@H]1CCCNC(=N)N [Example 32]
Return: 51

Enquiry: Check the records and state inhibition at 1 µM for C[C@@H]1CN(C(=O)[C@H](N)Cc2ccc(Cl)cc2)[C@@H](CCCNC(=N)N)CN1CCc1ccc2ccccc2c1 [Example 28]
Return: 64

Enquiry: Check the records and state inhibition at 1 µM for NCCCC[C@H]1C(=O)N(CCc2ccc3ccccc3c2)CCN1C(=O)[C@@H](Cc1ccc(Cl)cc1Cl)NC(=O)c1ccc(Oc2ccccc2)cc1 [Example 21]
Return: 35

====

Molecular target: UniProt:P32245
Sequence (P32245 whole entry): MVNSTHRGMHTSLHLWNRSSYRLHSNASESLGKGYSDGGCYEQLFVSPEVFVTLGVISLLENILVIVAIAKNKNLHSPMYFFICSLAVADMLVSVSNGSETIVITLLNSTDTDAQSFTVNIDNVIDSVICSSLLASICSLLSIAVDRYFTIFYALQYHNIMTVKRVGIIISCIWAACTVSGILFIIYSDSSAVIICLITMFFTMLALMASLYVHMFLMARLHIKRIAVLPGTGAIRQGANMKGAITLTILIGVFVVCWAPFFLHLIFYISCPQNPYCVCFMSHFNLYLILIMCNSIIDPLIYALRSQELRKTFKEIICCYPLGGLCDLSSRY
Assay: cAMP functional activity assay in HEK-293 cells, normal system
Format: cell-based
Set-up: expressed in transfected cells; host or cells: HEK-293
Conditions: normal receptor density system; NDP-α-MSH = 1.0
Non-standard residues stand in square brackets, D forms with d. Residues, ends and D or L forms follow the SMILES beside them. *: point of attachment. Acetyl(2-naphthyl) = O=C(Cc1ccc2ccccc2c1)*; dPhe(4-Cl) = N[C@H](Cc1ccc(Cl)cc1)C(=O)O; Ac6c = NC1(C(=O)O)CCCCC1
Readout: intrinsic activity at MC4-R in a normal system
# respond with the number and nothing more

Enquiry: Check the records and state intrinsic activity at MC4-R in a normal system for Cc1cc(Cl)ccc1C[C@@H](N)C(=O)N1C[C@@H](C)N(CCc2c[nH]c3ccccc23)C[C@@H]1CCCNC(=N)N
Return: 1

Enquiry: Check the records and state intrinsic activity at MC4-R in a normal system for N=C(N)NCCC[C@H](NC(=O)[C@@H](Cc1ccc(Cl)cc1)NC(=O)C1(NC(=O)Cc2ccc3ccccc3c2)CCCCC1)C(=O)N[C@@H](Cc1c[nH]c2ccccc12)C(N)=O [Example 24] ({Acetyl(2-naphthyl)}-[Ac6c][dPhe(4-Cl)]RW-NH2)
Return: 0.2

Enquiry: Check the records and state intrinsic activity at MC4-R in a normal system for Cc1cc(Cl)ccc1C[C@@H](N)C(=O)N1C[C@@H](C)N(C(=O)Cc2ccc3ccccc3c2)C[C@@H]1CCCNC(=N)N
Return: 0.9

Source: patent US20090081197A1
